Listed below: MIC values for each entry.
Tested on: vancomycin resistant Enterococcus faecium (VRE) (ATCC 51559)
Experiment: Minimum Inhibitory Concentration, micro-dilution broth
Assay type: cell-based
Measurement Conditions: 24 h, 37° C.

# Entry Smiles, Assay Target, Inequality Sign, MIC [µM]
data = [
    ("CCCCCCCCCCCC(=O)N(CCCNC(=O)[C@@H](N)Cc1ccccc1)CCCNC(=O)[C@@H](N)Cc1ccccc1.O=C(O)C(F)(F)F.O=C(O)C(F)(F)F", "vancomycin resistant Enterococcus faecium (VRE) (ATCC 51559)", "=", 2.7),
    ("CCCCCCCCCCCCCC(=O)N(CCCNC(=O)CN)CCCNC(=O)CN.O=C(O)C(F)(F)F.O=C(O)C(F)(F)F", "vancomycin resistant Enterococcus faecium (VRE) (ATCC 51559)", "=", 13),
    ("CCCCCCCCCCCC(=O)N(CCCNC(=O)CN)CCCNC(=O)CN.O=C(O)C(F)(F)F.O=C(O)C(F)(F)F", "vancomycin resistant Enterococcus faecium (VRE) (ATCC 51559)", "=", 112),
    ("CCCCCCCCCCCCCC(=O)N(CCCNC(=O)[C@H](C)N)CCCNC(=O)[C@H](C)N.O=C(O)C(F)(F)F.O=C(O)C(F)(F)F", "vancomycin resistant Enterococcus faecium (VRE) (ATCC 51559)", "=", 7.6),
    ("N[C@@H](Cc1ccccc1)C(=O)NCCCNCCCNC(=O)[C@@H](N)Cc1ccccc1.O=C(O)C(F)(F)F.O=C(O)C(F)(F)F.O=C(O)C(F)(F)F", "vancomycin resistant Enterococcus faecium (VRE) (ATCC 51559)", ">", 250),
    ("CCCCCCCCCCCCCC(=O)N(CCCNC(=O)[C@H](N)CCCCN)CCCNC(=O)[C@H](N)CCCCN.O=C(O)C(F)(F)F.O=C(O)C(F)(F)F", "vancomycin resistant Enterococcus faecium (VRE) (ATCC 51559)", "=", 2.8),
]

Reference source for all entries: patent US20170144969A1
